# target: HRgpA-6H (Porphyromonas gingivalis) (UniProt P28784)
# experiment: ELISA, Fab FASEBA supernatant on coated HRgpA-6H (0.0625 ug/ml)
Labelling field: enter rule met if recorded Ratio OD(Variant)/OD(WT) is less than 0.9. Enter rule not met if it equals or exceeds that cut-off.

# binder, assigned.class
data = [
    ("KB001 parental mouse Fab (WT) (Fab, V domains shown) VH: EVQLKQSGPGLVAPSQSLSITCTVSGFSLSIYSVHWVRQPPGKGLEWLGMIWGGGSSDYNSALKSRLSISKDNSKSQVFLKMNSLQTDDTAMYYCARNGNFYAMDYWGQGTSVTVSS VL: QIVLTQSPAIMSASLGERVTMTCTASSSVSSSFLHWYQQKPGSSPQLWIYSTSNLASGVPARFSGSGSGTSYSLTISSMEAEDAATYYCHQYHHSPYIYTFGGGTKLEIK", "rule not met"),
    ("KB001 parental mouse Fab VH variant Y106K (Fab, V domains shown) VH: EVQLKQSGPGLVAPSQSLSITCTVSGFSLSIYSVHWVRQPPGKGLEWLGMIWGGGSSDYNSALKSRLSISKDNSKSQVFLKMNSLQTDDTAMYYCARNGNFYAMDKWGQGTSVTVSS VL: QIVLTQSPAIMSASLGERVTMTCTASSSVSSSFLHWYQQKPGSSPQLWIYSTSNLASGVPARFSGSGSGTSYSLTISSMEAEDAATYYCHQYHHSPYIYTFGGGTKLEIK", "rule not met"),
    ("KB001 parental mouse Fab VH variant S65G (Fab, V domains shown) VH: EVQLKQSGPGLVAPSQSLSITCTVSGFSLSIYSVHWVRQPPGKGLEWLGMIWGGGSSDYNSALKGRLSISKDNSKSQVFLKMNSLQTDDTAMYYCARNGNFYAMDYWGQGTSVTVSS VL: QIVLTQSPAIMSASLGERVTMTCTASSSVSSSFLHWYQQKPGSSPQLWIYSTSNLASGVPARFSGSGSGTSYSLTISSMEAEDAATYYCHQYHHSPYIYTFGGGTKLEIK", "rule not met"),
    ("KB001 parental mouse Fab VH variant N100A (Fab, V domains shown) VH: EVQLKQSGPGLVAPSQSLSITCTVSGFSLSIYSVHWVRQPPGKGLEWLGMIWGGGSSDYNSALKSRLSISKDNSKSQVFLKMNSLQTDDTAMYYCARNGAFYAMDYWGQGTSVTVSS VL: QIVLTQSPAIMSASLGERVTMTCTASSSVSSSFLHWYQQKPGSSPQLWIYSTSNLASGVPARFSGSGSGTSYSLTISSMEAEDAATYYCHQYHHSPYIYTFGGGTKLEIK", "rule not met"),
    ("KB001 parental mouse Fab VH variant G99Y (Fab, V domains shown) VH: EVQLKQSGPGLVAPSQSLSITCTVSGFSLSIYSVHWVRQPPGKGLEWLGMIWGGGSSDYNSALKSRLSISKDNSKSQVFLKMNSLQTDDTAMYYCARNYNFYAMDYWGQGTSVTVSS VL: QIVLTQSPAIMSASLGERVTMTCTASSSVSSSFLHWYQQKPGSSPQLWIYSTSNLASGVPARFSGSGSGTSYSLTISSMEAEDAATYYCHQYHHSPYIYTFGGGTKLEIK", "rule not met"),
    ("KB001 parental mouse Fab VH variant Y106H (Fab, V domains shown) VH: EVQLKQSGPGLVAPSQSLSITCTVSGFSLSIYSVHWVRQPPGKGLEWLGMIWGGGSSDYNSALKSRLSISKDNSKSQVFLKMNSLQTDDTAMYYCARNGNFYAMDHWGQGTSVTVSS VL: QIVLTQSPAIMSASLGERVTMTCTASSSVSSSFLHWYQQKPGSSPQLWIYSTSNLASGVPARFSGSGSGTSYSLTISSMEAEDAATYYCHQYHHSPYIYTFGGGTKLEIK", "rule not met"),
    ("KB001 parental mouse Fab VH variant N100C (Fab, V domains shown) VH: EVQLKQSGPGLVAPSQSLSITCTVSGFSLSIYSVHWVRQPPGKGLEWLGMIWGGGSSDYNSALKSRLSISKDNSKSQVFLKMNSLQTDDTAMYYCARNGCFYAMDYWGQGTSVTVSS VL: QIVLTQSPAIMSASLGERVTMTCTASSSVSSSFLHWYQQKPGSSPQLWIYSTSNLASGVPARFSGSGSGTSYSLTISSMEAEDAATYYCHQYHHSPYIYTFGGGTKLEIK", "rule met"),
    ("KB001 parental mouse Fab VH variant M104V (Fab, V domains shown) VH: EVQLKQSGPGLVAPSQSLSITCTVSGFSLSIYSVHWVRQPPGKGLEWLGMIWGGGSSDYNSALKSRLSISKDNSKSQVFLKMNSLQTDDTAMYYCARNGNFYAVDYWGQGTSVTVSS VL: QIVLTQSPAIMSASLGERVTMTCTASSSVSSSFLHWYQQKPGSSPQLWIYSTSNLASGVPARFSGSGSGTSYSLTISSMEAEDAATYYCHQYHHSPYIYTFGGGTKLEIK", "rule met"),
    ("KB001 parental mouse Fab VH variant G99C (Fab, V domains shown) VH: EVQLKQSGPGLVAPSQSLSITCTVSGFSLSIYSVHWVRQPPGKGLEWLGMIWGGGSSDYNSALKSRLSISKDNSKSQVFLKMNSLQTDDTAMYYCARNCNFYAMDYWGQGTSVTVSS VL: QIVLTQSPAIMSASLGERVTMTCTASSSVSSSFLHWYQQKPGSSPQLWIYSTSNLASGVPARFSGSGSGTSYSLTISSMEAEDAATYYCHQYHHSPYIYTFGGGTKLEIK", "rule not met"),
    ("KB001 parental mouse Fab VH variant K64L (Fab, V domains shown) VH: EVQLKQSGPGLVAPSQSLSITCTVSGFSLSIYSVHWVRQPPGKGLEWLGMIWGGGSSDYNSALLSRLSISKDNSKSQVFLKMNSLQTDDTAMYYCARNGNFYAMDYWGQGTSVTVSS VL: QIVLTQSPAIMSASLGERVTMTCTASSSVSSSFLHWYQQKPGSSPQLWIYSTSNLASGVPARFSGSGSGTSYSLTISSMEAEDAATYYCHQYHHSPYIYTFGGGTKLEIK", "rule met"),
]
